Experiment: Solubility of the compound in acetate buffer at pH 4 at 25 degC by UPLC method
Assay type: physicochemical
Listed here are compounds together with their documented solubility.

Below: 5 compounds and their reported solubility.
| compound | solubility |
| --- | --- |
| COC(=O)N[C@H](C(=O)NN(Cc1ccc(-c2ccccn2)cc1)C[C@H](OC(=O)[C@@H](NC(=O)OC)C(C)(C)C)[C@H](Cc1ccccc1)NC(=O)OC(OC(=O)[C@H](N)C(C)C)C(C)C)C(C)(C)C.Cl.Cl (stereo partly specified) | > 1.43 mg/mL |
| COC(=O)N[C@H](C(=O)NN(Cc1ccc(-c2ccccn2)cc1)C[C@H](OC(=O)[C@@H](NC(=O)OC)C(C)(C)C)[C@H](Cc1ccccc1)NC(=O)OCc1oc(=O)oc1C)C(C)(C)C | < 0.001 mg/mL |
| COC(=O)N[C@H](C(=O)N[C@@H](Cc1ccccc1)[C@@H](O)CN(Cc1ccc(-c2ccccn2)cc1)NC(=O)[C@@H](NC(=O)OC)C(C)(C)C)C(C)(C)C | < 0.001 mg/mL |
| COC(=O)N[C@H](C(=O)NN(Cc1ccc(-c2ccccn2)cc1)C[C@H](OC(=O)[C@@H](NC(=O)OC)C(C)(C)C)[C@@H](N)Cc1ccccc1)C(C)(C)C.Cl.Cl | > 0.4 mg/mL |
| COC(=O)N[C@H](C(=O)NN(Cc1ccc(-c2ccccn2)cc1)C[C@H](OC(=O)[C@@H](NC(=O)OC)C(C)(C)C)[C@H](Cc1ccccc1)NC(=O)OCOC(=O)[C@@H](N)C(C)C)C(C)(C)C.Cl.Cl | > 1.5 mg/mL |

Here is another compound to look at.
Lookup: Check the records and state solubility for COC(=O)N[C@H](C(=O)NN(Cc1ccc(-c2ccccn2)cc1)C[C@H](OC(=O)[C@@H](NC(=O)OC)C(C)(C)C)[C@H](Cc1ccccc1)NC(=O)OC(OC(=O)[C@@H](N)C(C)C)C(C)C)C(C)(C)C.Cl.Cl (stereo partly specified)
Found: 0.12 mg/mL

* * *

System: Rattus norvegicus
Experiment: Cmax in Sprague-Dawley rat assessed as atazanavir at 3 mg/kg, po equiv of atazanavir after 0.25 to 24 hrs by UPLC/MS/MS method
Assay type: ADME, organism-based
Set-up: dose 3 mg/kg, route oral
Conditions: in vivo
quantity.name: Cmax (nM)

Would you please look over these solved cases?
| compound | Cmax, nM |
| --- | --- |
| COC(=O)N[C@H](C(=O)NN(Cc1ccc(-c2ccccn2)cc1)C[C@H](OC(=O)[C@@H](NC(=O)OC)C(C)(C)C)[C@H](Cc1ccccc1)NC(=O)OCOC(=O)[C@@H](N)C(C)C)C(C)(C)C.Cl.Cl | 56 |
| COC(=O)N[C@H](C(=O)NN(Cc1ccc(-c2ccccn2)cc1)C[C@H](OC(=O)[C@@H](NC(=O)OC)C(C)(C)C)[C@@H](N)Cc1ccccc1)C(C)(C)C.Cl.Cl | 8 |

P. COC(=O)N[C@H](C(=O)NN(Cc1ccc(-c2ccccn2)cc1)C[C@H](OC(=O)[C@@H](NC(=O)OC)C(C)(C)C)[C@H](Cc1ccccc1)NC(=O)OC(OC(=O)[C@H](N)C(C)C)C(C)C)C(C)(C)C.Cl.Cl (stereo partly specified)
Q. COC(=O)N[C@H](C(=O)NN(Cc1ccc(-c2ccccn2)cc1)C[C@H](OC(=O)[C@@H](NC(=O)OC)C(C)(C)C)[C@H](Cc1ccccc1)NC(=O)OCc1oc(=O)oc1C)C(C)(C)C
R. COC(=O)N[C@H](C(=O)NN(Cc1ccc(-c2ccccn2)cc1)C[C@H](OC(=O)[C@@H](NC(=O)OC)C(C)(C)C)[C@H](Cc1ccccc1)NC(=O)OC(OC(=O)[C@@H](N)C(C)C)C(C)C)C(C)(C)C.Cl.Cl (stereo partly specified)
S. COC(=O)N[C@H](C(=O)N[C@@H](Cc1ccccc1)[C@H](CN(Cc1ccc(-c2ccccn2)cc1)NC(=O)[C@@H](NC(=O)OC)C(C)(C)C)OC(=O)[C@@H](N)C(C)C)C(C)(C)C.Cl.Cl
Lookup: # desc sort on Cmax across 4 compounds Please list the labels according to the requested order.
Found: R, Q, P, S
(R: 310 nM, Q: 180 nM, P: 37 nM, S: 10 nM)

* * *

Experiment: Solubility of the compound in 0.1 N aqueous HCl at pH 1 at 25 degC by UPLC method
Type: physicochemical
quantity.name: solubility

// known answers, use as guide
| molecule | solubility |
| --- | --- |
| COC(=O)N[C@H](C(=O)N[C@@H](Cc1ccccc1)[C@@H](O)CN(Cc1ccc(-c2ccccn2)cc1)NC(=O)[C@@H](NC(=O)OC)C(C)(C)C)C(C)(C)C [ATAZANAVIR] | 1690 µg/mL |
| COC(=O)N[C@H](C(=O)NN(Cc1ccc(-c2ccccn2)cc1)C[C@H](OC(=O)[C@@H](NC(=O)OC)C(C)(C)C)[C@H](Cc1ccccc1)NC(=O)OCc1oc(=O)oc1C)C(C)(C)C | > 1800 µg/mL |
| COC(=O)N[C@H](C(=O)NN(Cc1ccc(-c2ccccn2)cc1)C[C@H](OC(=O)[C@@H](NC(=O)OC)C(C)(C)C)[C@H](Cc1ccccc1)NC(=O)OCOC(=O)[C@@H](N)C(C)C)C(C)(C)C.Cl.Cl | > 1800 µg/mL |
| COC(=O)N[C@H](C(=O)NN(Cc1ccc(-c2ccccn2)cc1)C[C@H](OC(=O)[C@@H](NC(=O)OC)C(C)(C)C)[C@@H](N)Cc1ccccc1)C(C)(C)C.Cl.Cl | > 900 µg/mL |
| COC(=O)N[C@H](C(=O)NN(Cc1ccc(-c2ccccn2)cc1)C[C@H](OC(=O)[C@@H](NC(=O)OC)C(C)(C)C)[C@H](Cc1ccccc1)NC(=O)OC(OC(=O)[C@@H](N)C(C)C)C(C)C)C(C)(C)C.Cl.Cl (stereo partly specified) | > 1100 µg/mL |

With those in mind, consider the next molecule.
Lookup: Note down solubility recorded for COC(=O)N[C@H](C(=O)NN(Cc1ccc(-c2ccccn2)cc1)C[C@H](OC(=O)[C@@H](NC(=O)OC)C(C)(C)C)[C@H](Cc1ccccc1)NC(=O)OC(OC(=O)[C@H](N)C(C)C)C(C)C)C(C)(C)C.Cl.Cl (stereo partly specified)
Found: > 500 µg/mL

* * *

Test system: Rattus norvegicus
Experiment: Trough concentration in Sprague-Dawley rat assessed as (2S,3S)-3-Amino-1-(2-((S)-2-((methoxycarbonyl)amino)-3,3-dimethylbutanoyl)-1-(4-(pyridin-2-yl)benzyl)hydrazinyl)4-phenylbutan-2-yl (S)-2-((Methoxycarbonyl)amino)-3,3-dimethylbutanoate Dihydrochloride at 3 mg/kg, po equiv of atazanavir at 24 hrs by UPLC/MS/MS method
Type: ADME, organism-based
Details: in vivo, read-out: Cmin
quantity.name: concentration (nM)
Your answer is read as nM, so omit the unit and give the number.

Lookup: Find concentration for COC(=O)N[C@H](C(=O)NN(Cc1ccc(-c2ccccn2)cc1)C[C@H](OC(=O)[C@@H](NC(=O)OC)C(C)(C)C)[C@H](Cc1ccccc1)NC(=O)OC(OC(=O)[C@@H](N)C(C)C)C(C)C)C(C)(C)C.Cl.Cl (stereo partly specified) on Rattus norvegicus and write it down.
Found: 2

* * *

Tested on: Rattus norvegicus
Assay: Cmax in Sprague-Dawley rat assessed as (2S,3S)-3-Amino-1-(2-((S)-2-((methoxycarbonyl)amino)-3,3-dimethylbutanoyl)-1-(4-(pyridin-2-yl)benzyl)hydrazinyl)4-phenylbutan-2-yl (S)-2-((Methoxycarbonyl)amino)-3,3-dimethylbutanoate Dihydrochloride at 3 mg/kg, po equiv of atazanavir after 0.25 to 24 hrs by UPLC/MS/MS method
Assay type: ADME, organism-based
Parameters: dose 3 mg/kg, route oral
Details: in vivo
quantity.name: Cmax (nM)
Record the value in nM, omitting the unit from your answer.

Lookup: For the compound COC(=O)N[C@H](C(=O)NN(Cc1ccc(-c2ccccn2)cc1)C[C@H](OC(=O)[C@@H](NC(=O)OC)C(C)(C)C)[C@H](Cc1ccccc1)NC(=O)OC(OC(=O)[C@@H](N)C(C)C)C(C)C)C(C)(C)C.Cl.Cl (stereo partly specified) , give its reported Cmax.
Found: 124

* * *

Experiment: Half life in rat hepatocytes at 1 uM after 5 to 120 mins by UPLC-MS/MS method
Type: ADME, cell-based, Hepatocyte
quantity.name: half-life at 1 µM (min)

| compound | unit.info | half-life at 1 µM |
| --- | --- | --- |
| COC(=O)N[C@H](C(=O)NN(Cc1ccc(-c2ccccn2)cc1)C[C@H](OC(=O)[C@@H](NC(=O)OC)C(C)(C)C)[C@H](Cc1ccccc1)NC(=O)OC(OC(=O)[C@@H](N)C(C)C)C(C)C)C(C)(C)C.Cl.Cl (stereo partly drawn) | min | 56 |

A. COC(=O)N[C@H](C(=O)N[C@@H](Cc1ccccc1)[C@@H](O)CN(Cc1ccc(-c2ccccn2)cc1)NC(=O)[C@@H](NC(=O)OC)C(C)(C)C)C(C)(C)C
B. COC(=O)N[C@H](C(=O)NN(Cc1ccc(-c2ccccn2)cc1)C[C@H](OC(=O)[C@@H](NC(=O)OC)C(C)(C)C)[C@@H](N)Cc1ccccc1)C(C)(C)C.Cl.Cl
Lookup: Which entry has a larger number for half-life at 1 µM, A or B ? Kindly state the label of the option you pick.
Found: B

Values were extracted from ChEMBL document CHEMBL4184322.
